- protocol details: Drug uptake in nucleus of human HeLa cells expressing (CUG)960 RNA at 35 uM after 36 hrs by confocal microscopic analysis
- Format: ADME, cell-based
property: Drug uptake

- structure string: "Nc1nc(N)nc(NCCCCNc2c3ccccc3nc3c(C(=O)NCCNCCNCCNC(=O)c4cccc5c(NCCCCNc6nc(N)nc(N)n6)c6ccccc6nc45)cccc23)n1"
  recorded measurement: "Not Active"
- structure string: "CNC(=O)c1ccc2nc3ccccc3c(NCCCCNc3nc(N)nc(N)n3)c2c1"
  recorded measurement: "Not Active"
- structure string: "Nc1nc(N)nc(NCCCCNc2c3ccccc3nc3c(C(=O)NCCCNCCCNCCCNC(=O)c4cccc5c(NCCCCNc6nc(N)nc(N)n6)c6ccccc6nc45)cccc23)n1"
  recorded measurement: "Active"
- structure string: "Nc1nc(N)nc(NCCCCNc2c3ccccc3nc3ccc(C(=O)NCCCNCCCCCCCCNCCCNC(=O)c4ccc5nc6ccccc6c(NCCCCNc6nc(N)nc(N)n6)c5c4)cc23)n1"
  recorded measurement: "Active"

Hello, the source for this data is ChEMBL document CHEMBL3102820, in case you need it.
